Assay: Cytotoxicity against human THP1 cells assessed as cell viability at 10 to 90 uM incubated for 18 hrs by sulforhodamine B assay relative to control
Assay type: cell-based
Details: THP-1 cells, read-out: Activity
observation.type: viability at 18 h, up to 90 µM

Name the recorded viability at 18 h, up to 90 µM for `COc1cc(O)c2c(c1)O[C@H](c1ccc(O)cc1)[C@H]([C@@H]1C(=O)c3c(O)cc(OC)cc3O[C@@H]1c1ccc(O)cc1)C2=O` .
> 90%

Name the recorded viability at 18 h, up to 90 µM for `COc1cc(O)c2c(c1)O[C@H](c1ccc(O)cc1)[C@@H]([C@H]1C(=O)c3c(O)cc(O)cc3O[C@@H]1c1ccc(O)cc1)C2=O` .
> 90%

Name the recorded viability at 18 h, up to 90 µM for `COc1cc(O)c2c(c1)O[C@H](c1ccc(O)cc1)[C@@H]([C@H]1C(=O)c3c(O)cc(OC)cc3O[C@@H]1c1ccc(O)cc1)C2=O` .
> 90%

Name the recorded viability at 18 h, up to 90 µM for O=C1c2c(O)cc(O)cc2O[C@H](c2ccc(O)cc2)[C@@H]1[C@@H]1C(=O)c2c(O)cc(O)cc2O[C@@H]1c1ccc(O)cc1 [NEOCHAMAEJASMIN A] .
> 90%
